- Experiment Notes: NCI Yeast Anticancer Drug Screen. Data for the cln2 rad14 strain (AID 165);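 note: 0% = growth equal to vehicle treated cultures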
- Run Parameters: S. cerevisiae cln2 rad14 strain, at 50.0 µM, hits give high values
- Description: Growth inhibition of yeast strains with defined genetic alterations is measured as a screen for potential anti-cancer activity. Selected strains with alterations in DNA damage repair or cell cycle control were exposed to compounds and growth inhibition was measured relative to vehicle treated controls. The strain used in this assay is cln2 rad14
Compounds without any hit were thinned out: in the full panel of roughly 79,000, 15% have a hit.
Returns one of Yes or No; Yes when growth inhibition is >= -40%.

Reported growth inhibition at or above -40%? `COc1ccc(/C=C(\C)C=C(C#N)C#N)cc1`
Yes

###

- Experiment Notes: NCI Yeast Anticancer Drug Screen. Data for the cln2 rad14 strain (AID 165);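 note: 0% = growth equal to vehicle treated cultures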
- Run Parameters: S. cerevisiae cln2 rad14 strain, at 50.0 µM, hits give high values
About 79,000 compounds went through this panel and 15% of them were active in at least one assay; those are over-represented in the sample as a whole.
Metric: growth inhibition (%)
Express the result in % but write the number alone.

Looking for the measured growth inhibition of `CCC(CC)c1nc2c([nH]1)c(=O)n(C)c(=O)n2C` , can you help?
-32.5

###

- Experiment Notes: NCI Yeast Anticancer Drug Screen. Data for the cln2 rad14 strain (AID 165);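 note: 0% = growth equal to vehicle treated cultures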
- Run Parameters: S. cerevisiae cln2 rad14 strain, at 50.0 µM, hits give high values
The panel holds about 79,000 compounds, 15% with a hit somewhere; the sample as a whole holds those more often.
Measured growth inhibition values are reported for all entries that follow.
Express the result in % but write the number alone.

Known growth inhibition results, listed for orientation:
[[record]]
molecule = "CN(C)c1ccc(/C=C(\\C#N)c2cccc(F)c2)cc1"
units = "%"
endpoint_result = -14.2

[[record]]
molecule = "CNC(=O)OCc1c(COC(=O)NC)c(C)n(-c2ccc3c(c2)OCO3)c1C"
units = "%"
endpoint_result = -0.45

[[record]]
molecule = "CCCCCCCCCCOC(=O)Nc1cccc(O)c1"
units = "%"
endpoint_result = 18.9

[[record]]
molecule = "NC(=O)C1C2CC3C(C2)C31 (stereo not drawn)"
units = "%"
endpoint_result = -1

[[record]]
molecule = "COc1ccc(N=Nc2ccccc2)cc1"
units = "%"
endpoint_result = -10.6


Looking for the measured growth inhibition of `C/C(=C/c1ccccc1)C(F)F` , can you help?
-7.45

Looking for the measured growth inhibition of `OCC(F)(F)C(F)(F)C(F)(F)C(F)(F)C(F)(F)C(F)(F)C(F)(F)C(F)F` , can you help?
-11.5

Looking for the measured growth inhibition of `CCOC(=O)N1CCN(c2c(N)nc(C)[nH]c2=O)CC1` , can you help?
-14.8

Looking for the measured growth inhibition of `O=C(O)COc1ccc(C2CCCCC2)cc1` , can you help?
21.8

Looking for the measured growth inhibition of CC(C(=O)O)c1ncnn1-c1ccccc1 (stereo not drawn) , can you help?
4.85

Looking for the measured growth inhibition of `CCOC(=O)NC(CI)(c1ccccc1)c1ccccc1` , can you help?
7.2

Looking for the measured growth inhibition of `CSc1cc(C)c(OC(=O)Nc2cc(C)ccc2C)c(C)c1` , can you help?
1

Looking for the measured growth inhibition of O=C1CN(c2ccccc2)CC(=O)N2C(c3ccccc3)CCCN12 (stereo not drawn) , can you help?
26.2

Looking for the measured growth inhibition of `c1ccc(B2OC(c3ccccc3)=C(c3ccccc3)O2)cc1` , can you help?
11.8

Looking for the measured growth inhibition of COc1ccc(C(O)Cc2cc(=O)cc(-c3ccccc3)[nH]2)cc1 (stereo not drawn) , can you help?
-40.3

Looking for the measured growth inhibition of `CC(=O)OCCOC(=O)Nc1cccc2ccccc12` , can you help?
30.9

Looking for the measured growth inhibition of `O=C(Nc1cccc2c1[nH]c1c(-c3ccccc3)nccc12)c1ccccc1[N+](=O)[O-]` , can you help?
23.2

Looking for the measured growth inhibition of `N#C/C(=N/Nc1nc[nH]c1C(N)=O)C(=O)Nc1ccccc1` , can you help?
-0.1

Looking for the measured growth inhibition of `CCOc1ccc(NC(=O)CCc2nnc(SC)o2)cc1` , can you help?
-16.4

Looking for the measured growth inhibition of `Cc1c(C#N)c2n(c1C)CCN2` , can you help?
-36

Looking for the measured growth inhibition of `CN(C)CCN1C(=O)CC[C@@]2(C)C1=CC[C@@H]1[C@@H]2CC[C@@]2(C)[C@H]1CC[C@]2(C)O` , can you help?
-11.1

Looking for the measured growth inhibition of `O=c1c2ccccc2nc(-c2ccccc2)n1NC(=S)Nc1cccc(Cl)c1` , can you help?
-71.7

Looking for the measured growth inhibition of `O=C(Nc1ccccc1)c1nn(-c2cc(S(=O)(=O)O)c([N+](=O)[O-])cc2Cl)[n+](-c2cc(S(=O)(=O)[O-])c([N+](=O)[O-])cc2Cl)n1` , can you help?
-26.8

Looking for the measured growth inhibition of COC(=O)C(C(Br)C(=O)c1ccccc1)C(c1ccccc1)[N+](=O)[O-] (stereo not drawn) , can you help?
2.3

Looking for the measured growth inhibition of `Cc1ccc(C(=O)Nc2ccc3c(c2)Cc2ccccc2-3)cc1` , can you help?
-5

Looking for the measured growth inhibition of `C#CCNC(=O)NCCCl` , can you help?
-34.1

Looking for the measured growth inhibition of O=C(NNc1ccccc1)NNc1ccccc1 (tested in a mixture with another compound) , can you help?
23.8

Looking for the measured growth inhibition of `COC(=O)c1cccc(Cl)c1C(=O)c1ccc(C)cc1C` , can you help?
-52.9

Looking for the measured growth inhibition of COc1ccc(C2C(N)=NCC2c2ccccn2)cc1 (stereo not drawn) , can you help?
16.1

###

Measured growth inhibition values are reported for all entries that follow.
- Experiment Notes: NCI Yeast Anticancer Drug Screen. Data for the mec2-1 strain (AID 157)
- Run Parameters: S. cerevisiae mec2-1 strain, at 50.0 µM, hits give high values
About 79,000 compounds went through this panel and 15% of them were active in at least one assay; those are over-represented in the sample as a whole.
Express the result in % but write the number alone.

Known growth inhibition results, listed for orientation:
[[record]]
compound = "N#Cc1cc(-c2ccccc2)c[nH]c1=O"
metric = "growth inhibition"
units = "%"
endpoint_result = -1.45

[[record]]
compound = "O=C(CC(O)(C(F)(F)F)C(F)(F)F)c1cccc(S(=O)(=O)N2CCOCC2)c1"
metric = "growth inhibition"
units = "%"
endpoint_result = 5.9


Looking for the measured growth inhibition of `CC1c2ccccc2-c2ccccc21` , can you help?
-4.9

Looking for the measured growth inhibition of `O=C(O)CCCC#CCCCC(=O)O` , can you help?
4.5

###

- Experiment Notes: NCI Yeast Anticancer Drug Screen. Data for the cln2 rad14 strain (AID 165);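 note: 0% = growth equal to vehicle treated cultures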
- Run Parameters: S. cerevisiae cln2 rad14 strain, at 50.0 µM, hits give high values
Compounds without any hit were thinned out: in the full panel of roughly 79,000, 15% have a hit. The source made the active and inactive calls. Rule as the data show it: active = growth inhibition above about 70%; inactive = the rest.
Metric: growth inhibition

Known growth inhibition results, listed for orientation:
[[record]]
compound = "O=C1/C(=C/c2ccc(C(=O)O)cc2)CNC/C1=C\\c1ccc(C(=O)O)cc1"
endpoint_result = "-15.4% (inactive)"

[[record]]
compound = "CCCCc1c(OCC)cc2n(CC)c3ccccc3n2c1=O"
endpoint_result = "-10.9% (inactive)"

[[record]]
compound = "CCCCNc1nc2ccccc2c2c1ncn2CC(C)C"
endpoint_result = "23.5% (inactive)"

[[record]]
compound = "Cc1cc(=O)[nH]c(=O)n1CCCN(C)CCCn1c(C)cc(=O)[nH]c1=O"
endpoint_result = "-0.9% (inactive)"

[[record]]
compound = "CSCC1CC(c2ccc(Cl)cc2)=NO1 (stereo unspecified)"
endpoint_result = "-1.4% (inactive)"

[[record]]
compound = "CC(=O)C1=C(O)C2(O)C(=O)c3c(c(C)c4ccc(C)c(O)c4c3O)CC2C(N)C1=O (stereo unspecified)"
endpoint_result = "11.7% (inactive)"


Below: the item to evaluate.
Looking for the measured growth inhibition of `CC(=O)NCCO` , can you help?
-19.4% (inactive)

###

- Experiment Notes: NCI Yeast Anticancer Drug Screen. Data for the mlh1 rad18 strain (AID 175)
- Run Parameters: S. cerevisiae mlh1 rad18 strain growth inhibition; at 50.0 µM; hits give high values
The panel holds about 79,000 compounds, 15% with a hit somewhere; the sample as a whole holds those more often.
Measured growth inhibition values are reported for all entries that follow.
Express the result in % but write the number alone.

Known growth inhibition results, listed for orientation:
[[record]]
compound = "O=c1[nH]c(=O)n(C2OC(COP(=O)(O)OP(=O)(O)O)C(O)C2O)cc1F (stereo not given)"
metric = "growth inhibition"
units = "%"
endpoint_result = -7

[[record]]
compound = "CN(C)c1nc(=Nc2ccc3c(c2)OCO3)ss1"
metric = "growth inhibition"
units = "%"
endpoint_result = 50.2

[[record]]
compound = "C(/Cc1ccc2c(c1)OCO2)=N\\NC1=NCCN1"
metric = "growth inhibition"
units = "%"
endpoint_result = 18.1


Looking for the measured growth inhibition of `CCCCN(CCCC)CCCNC(=S)Nc1ccccc1` , can you help?
36.4

Looking for the measured growth inhibition of `O=C(Nc1ccccn1)c1ccc([N+](=O)[O-])cc1` , can you help?
-2.4

Looking for the measured growth inhibition of `COc1nc2[nH]ccc2c(=O)n1C` , can you help?
17.4

Data origin: PubChem BioAssay (NCI)
